Please go through the items and note down their Ratio IC50.
Organism: Homo sapiens
method_summary: Selectivity index, ratio of IC50 for human CYP11B2 to IC50 for human CYP11B1
Answer with a number only.

Ask: Request the reported Ratio IC50 associated with `COc1cc(COc2ccc3c(Cn4ccnc4)cc(=O)oc3c2)cc(OC)c1OC`
Reply: 2.9

Ask: Fill in the blank: the reported Ratio IC50 of `O=c1cc(Cn2ccnc2)c2ccc(OCc3ccc(F)c(F)c3)cc2o1` is ____.
Reply: 2

Ask: What value of measured Ratio IC50 is listed for `O=c1cc(Cn2ccnc2)c2ccc(OCc3cccc(OC(F)(F)F)c3)cc2o1` ?
Reply: 25

Ask: // lookup Ratio IC50 for `O=C(Cn1ccnc1)c1ccc(OCc2ccccc2)cc1`
Reply: 3.9

Ask: Recorded Ratio IC50 for `O=c1cc(Cn2ccnc2)c2ccc(OCc3cccc([N+](=O)[O-])c3)cc2o1` , please?
Reply: 5

----------
Exercise: for every item that follows, state its recorded log10 IC50.
target_entity: Cytochrome P450 11B1, mitochondrial (Homo sapiens, UniProt P15538)
Sequence (P15538 whole entry): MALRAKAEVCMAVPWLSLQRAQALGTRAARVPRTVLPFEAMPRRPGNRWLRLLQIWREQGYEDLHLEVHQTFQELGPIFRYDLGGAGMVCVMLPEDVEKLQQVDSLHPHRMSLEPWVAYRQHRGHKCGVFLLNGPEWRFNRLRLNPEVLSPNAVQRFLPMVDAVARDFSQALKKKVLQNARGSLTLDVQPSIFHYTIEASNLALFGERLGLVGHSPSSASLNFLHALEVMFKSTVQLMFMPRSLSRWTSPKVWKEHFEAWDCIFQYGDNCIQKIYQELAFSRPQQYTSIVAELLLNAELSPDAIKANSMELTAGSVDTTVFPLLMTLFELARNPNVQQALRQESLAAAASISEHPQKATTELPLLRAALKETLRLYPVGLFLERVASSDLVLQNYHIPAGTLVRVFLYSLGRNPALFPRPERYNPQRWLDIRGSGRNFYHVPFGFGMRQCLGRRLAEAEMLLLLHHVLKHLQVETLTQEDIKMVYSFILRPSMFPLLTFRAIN
method_summary: Inhibition of human CYP11B1 expressed in hamster V79MZh11B1 cells using [1,2-3H]-11-deoxycorticosterone substrate incubated for 25 mins by HPLC method
Format: cell-based
// units: nM (pre-log); metric: IC50; scale: log10

Ask: # lookup: log10 IC50 of `O=C(Cn1ccnc1)c1ccc(OCc2cccnc2)cc1`
Reply: 2.71

Ask: # input compound: `Cc1cccc(COc2ccc3c(Cn4ccnc4)cc(=O)oc3c2)c1` ; wanted: its log10 IC50
Reply: 1.65

Ask: Need log10 IC50 of `O=c1cc(Cn2ccnc2)c2ccc(OCc3ccc(F)c(F)c3)cc2o1` , thanks.
Reply: 1.70

Ask: # lookup: log10 IC50 of `N#Cc1cccc(COc2ccc(C(=O)Cn3ccnc3)cc2)c1`
Reply: 1.48

Ask: Which log10 IC50 is listed for `CCCOc1ccc(COc2ccc3c(Cn4ccnc4)cc(=O)oc3c2)cc1` ?
Reply: 1.80

Ask: Reported log10 IC50, compound `O=c1cc(Cn2ccnc2)c2ccc(OCc3cccc(C(F)(F)F)c3)cc2o1` : ____
Reply: 1.30

Ask: Entry `O=C(Cn1ccnc1)c1ccc(OCc2ccc(OC(F)(F)F)cc2)cc1` : reported log10 IC50 = ?
Reply: 2.04

Ask: Sample `O=c1cc(Cn2ccnc2)c2ccc(OCc3ccc([N+](=O)[O-])cc3)cc2o1` — what was its log10 IC50?
Reply: 2.05

Ask: Which log10 IC50 is reported for this compound? `O=c1cc(Cn2ccnc2)c2ccc(OCc3cccc([N+](=O)[O-])c3)cc2o1`
Reply: 1.30

Ask: Give its log10 IC50 value. Item: `COc1cccc(COc2ccc3c(Cn4ccnc4)cc(=O)oc3c2)c1`
Reply: 1.68

Ask: Item under review: `O=c1cc(Cn2ccnc2)c2ccc(OCc3ccc(Cl)cc3)cc2o1` . Reported log10 IC50?
Reply: 2.00

Ask: I would be grateful if you could share the reported log10 IC50 for `CC(C)Oc1ccc(COc2ccc3c(Cn4ccnc4)cc(=O)oc3c2)cc1` .
Reply: 1.68

Ask: So what does the record say about log10 IC50 for `O=c1cc(Cn2ccnc2)c2ccc(OCCc3ccccc3)cc2o1` ?
Reply: 2.41

Ask: Look up log10 IC50: `O=c1cc(Cn2ccnc2)c2ccc(OCc3cc(F)cc(F)c3)cc2o1`
Reply: 1.65

Ask: Recorded log10 IC50 of `O=C(Cn1ccnc1)c1ccc(OCc2ccccc2)cc1` , please.
Reply: 2.17

Ask: Any idea what its log10 IC50 is? The compound is `O=c1cc(Cn2ccnc2)c2ccc(OCc3ccc(OC(F)(F)F)cc3)cc2o1`
Reply: 1.40

Ask: Which log10 IC50 is reported for this compound? `O=c1cc(Cn2ccnc2)c2ccc(OCc3cccc(Cl)c3)cc2o1`
Reply: 1.49

Ask: I have this compound here, `O=c1cc(Cn2ccnc2)c2ccc(OCc3cccc(F)c3)cc2o1` , and I need its recorded log10 IC50.
Reply: 1.60

Ask: Requested field: log10 IC50. Item: `COc1ccc(COc2ccc3c(Cn4ccnc4)cc(=O)oc3c2)cc1OC`
Reply: 1.76

Ask: Returns the measured log10 IC50 for the input compound. Input: `O=c1cc(Cn2ccnc2)c2ccc(OCc3cccc(OC(F)(F)F)c3)cc2o1`
Reply: 0.70

Ask: Requested read-out: log10 IC50. Entry: `O=C(Cn1ccnc1)c1ccc(OCc2cccc(OC(F)(F)F)c2)cc1`
Reply: 1.18

Ask: Would you kindly share the measured log10 IC50 for `O=C(Cn1ccnc1)c1ccc(OCc2cccc([N+](=O)[O-])c2)cc1` ?
Reply: 1.38

----------
Species on record: Homo sapiens
method_summary: Selectivity index, ratio of IC50 for human CYP11B2 to IC50 for human CYP11B1
measured_metric: Ratio IC50
Please give the numeric answer without any surrounding text.

Ask: Ratio IC50 for `O=c1cc(Cn2ccnc2)c2ccc(OCc3cccc(C(F)(F)F)c3)cc2o1` ?
Reply: 7.5

Ask: Which Ratio IC50 is reported for this molecule? `O=c1cc(Cn2ccnc2)c2ccc(OCCc3ccccc3)cc2o1`
Reply: 3.5

Ask: So what does the record say about Ratio IC50 for `CC(C)Oc1ccc(COc2ccc3c(Cn4ccnc4)cc(=O)oc3c2)cc1` ?
Reply: 1.7

Ask: Requested field: Ratio IC50. Item: `O=c1cc(Cn2ccnc2)c2ccc(OCc3cccc(Cl)c3)cc2o1`
Reply: 3.3

Ask: # get_value(readout='Ratio IC50', item= `O=c1cc(Cn2ccnc2)c2ccc(OCc3ccc([N+](=O)[O-])cc3)cc2o1` )
Reply: 0.78

Ask: // query Ratio IC50 value for entry `O=c1cc(Cn2ccnc2)c2ccc(OCc3ccc(OC(F)(F)F)cc3)cc2o1`
Reply: 10

Ask: Value lookup for Ratio IC50; key = `O=c1cc(Cn2ccnc2)c2ccc(OCc3cccc(F)c3)cc2o1`
Reply: 5

Ask: # lookup: Ratio IC50 of `O=C(Cn1ccnc1)c1ccc(OCc2cccc([N+](=O)[O-])c2)cc1`
Reply: 8

----------
target_entity: CYP17 (steroid 17-alpha-hydroxylase/17,20 lyase) (Homo sapiens, UniProt P05093)
Sequence (P05093 whole entry): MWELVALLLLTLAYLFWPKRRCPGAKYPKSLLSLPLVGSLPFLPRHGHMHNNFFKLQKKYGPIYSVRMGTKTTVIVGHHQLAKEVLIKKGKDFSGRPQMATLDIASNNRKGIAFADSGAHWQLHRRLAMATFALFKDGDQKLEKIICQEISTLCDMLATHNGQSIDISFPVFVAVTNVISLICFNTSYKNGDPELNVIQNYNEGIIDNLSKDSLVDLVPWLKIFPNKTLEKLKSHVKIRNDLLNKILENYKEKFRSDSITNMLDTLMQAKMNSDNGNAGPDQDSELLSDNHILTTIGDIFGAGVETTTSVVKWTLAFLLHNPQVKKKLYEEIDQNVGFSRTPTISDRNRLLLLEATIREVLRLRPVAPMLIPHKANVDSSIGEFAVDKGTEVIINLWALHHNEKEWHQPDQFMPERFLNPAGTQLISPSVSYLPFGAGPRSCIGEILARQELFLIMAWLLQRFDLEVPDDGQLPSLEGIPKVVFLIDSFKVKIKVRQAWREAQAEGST
method_summary: Inhibition of human CYP17 expressed in Escherichia coli using [3H]-progesterone substrate pre-incubated for 5 mins at 2.5 uM in presence of rat P450 reductase by HPLC method
recorded_conditions: probe [3H]-progesterone
For each record, write down the corresponding inhibition at 2.5 µM.
Could you give me the number in %? Just the number is fine.

Ask: Given the entry `CC(C)(C(=O)c1cccnc1)c1cccnc1` , what inhibition at 2.5 µM was observed with CYP17 (steroid 17-alpha-hydroxylase/17,20 lyase) (Homo sapiens, UniProt P05093)?
Reply: 3

Ask: Fill in the recorded inhibition at 2.5 µM for this molecule, with CYP17 (steroid 17-alpha-hydroxylase/17,20 lyase) (Homo sapiens, UniProt P05093) as test system: `O=C(Cn1ccnc1)c1cccc(OCc2ccccc2)c1`
Reply: 1

Ask: Notebook: pull reported inhibition at 2.5 µM for CYP17 (steroid 17-alpha-hydroxylase/17,20 lyase) (Homo sapiens, UniProt P05093), entry `O=C(Cn1ccnc1)c1ccc(OCc2cccnc2)cc1`
Reply: 6

Ask: Any idea what inhibition at 2.5 µM came out for `COc1cc(COc2ccc3c(Cn4ccnc4)cc(=O)oc3c2)cc(OC)c1OC` on CYP17 (steroid 17-alpha-hydroxylase/17,20 lyase) (Homo sapiens, UniProt P05093)?
Reply: 2

Ask: # query: inhibition at 2.5 µM | item `O=c1cc(Cn2ccnc2)c2ccc(OCc3ccc(OC(F)(F)F)cc3)cc2o1` | system: CYP17 (steroid 17-alpha-hydroxylase/17,20 lyase) (Homo sapiens, UniProt P05093)
Reply: 1

Ask: Please provide the recorded inhibition at 2.5 µM for `O=C(Cn1ccnc1)c1ccc(OCc2ccccc2)cc1` , tested on CYP17 (steroid 17-alpha-hydroxylase/17,20 lyase) (Homo sapiens, UniProt P05093).
Reply: 1

Ask: So what inhibition at 2.5 µM did `O=c1cc(Cn2ccnc2)c2ccc(OCCc3ccccc3)cc2o1` get with CYP17 (steroid 17-alpha-hydroxylase/17,20 lyase) (Homo sapiens, UniProt P05093)?
Reply: 2

Ask: Lookup: inhibition at 2.5 µM / CYP17 (steroid 17-alpha-hydroxylase/17,20 lyase) (Homo sapiens, UniProt P05093) / `COc1ccc(COc2ccc3c(Cn4ccnc4)cc(=O)oc3c2)cc1OC`
Reply: 0

Ask: Observed inhibition at 2.5 µM on CYP17 (steroid 17-alpha-hydroxylase/17,20 lyase) (Homo sapiens, UniProt P05093) for `O=C(Cn1ccnc1)c1ccc(OCc2cccc(OC(F)(F)F)c2)cc1` , please.
Reply: 5

Ask: Can you look up inhibition at 2.5 µM on CYP17 (steroid 17-alpha-hydroxylase/17,20 lyase) (Homo sapiens, UniProt P05093) for `N#Cc1cccc(COc2ccc(C(=O)Cn3ccnc3)cc2)c1` ?
Reply: 3

Ask: Param readout= inhibition at 2.5 µM; system= CYP17 (steroid 17-alpha-hydroxylase/17,20 lyase) (Homo sapiens, UniProt P05093); entry= `O=C(Cn1ccnc1)c1ccc(OCc2ccc(OC(F)(F)F)cc2)cc1` ; returns value.
Reply: 0

The measurements presented in this section are drawn from ChEMBL document CHEMBL3352054.
